Assay target: human TLR8 (Homo sapiens, UniProt Q9NR97)
Sequence (Q9NR97 27-1041): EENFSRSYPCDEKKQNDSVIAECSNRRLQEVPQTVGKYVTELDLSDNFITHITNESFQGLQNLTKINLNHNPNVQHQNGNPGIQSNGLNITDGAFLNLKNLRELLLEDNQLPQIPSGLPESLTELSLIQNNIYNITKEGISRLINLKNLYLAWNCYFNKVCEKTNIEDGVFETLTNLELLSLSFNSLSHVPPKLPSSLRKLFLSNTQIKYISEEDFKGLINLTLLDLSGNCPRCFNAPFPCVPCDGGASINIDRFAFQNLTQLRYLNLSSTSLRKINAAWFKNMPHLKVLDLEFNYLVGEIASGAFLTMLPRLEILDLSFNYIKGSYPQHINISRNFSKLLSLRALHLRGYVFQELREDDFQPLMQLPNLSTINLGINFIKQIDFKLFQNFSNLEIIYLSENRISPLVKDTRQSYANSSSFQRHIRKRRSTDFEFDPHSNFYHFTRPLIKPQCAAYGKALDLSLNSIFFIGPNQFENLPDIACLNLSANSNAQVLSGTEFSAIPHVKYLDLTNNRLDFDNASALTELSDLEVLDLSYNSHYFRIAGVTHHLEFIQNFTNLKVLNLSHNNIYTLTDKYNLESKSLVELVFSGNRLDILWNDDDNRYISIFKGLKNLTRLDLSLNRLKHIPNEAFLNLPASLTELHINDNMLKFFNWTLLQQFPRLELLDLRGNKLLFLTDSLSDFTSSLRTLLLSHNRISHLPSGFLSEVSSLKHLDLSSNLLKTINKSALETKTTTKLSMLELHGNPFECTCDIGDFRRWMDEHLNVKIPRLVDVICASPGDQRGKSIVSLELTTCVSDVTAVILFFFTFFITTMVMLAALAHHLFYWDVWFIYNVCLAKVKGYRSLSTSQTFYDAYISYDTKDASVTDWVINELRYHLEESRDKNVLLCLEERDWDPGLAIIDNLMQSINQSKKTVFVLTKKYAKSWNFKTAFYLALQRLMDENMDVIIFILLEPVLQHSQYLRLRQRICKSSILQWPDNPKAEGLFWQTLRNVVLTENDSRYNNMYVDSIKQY
Run description: HEK293-Blue-hTLR-8 cells assay (SEAP reporter, R848 stimulation)
Settings: HEK293-Blue-hTLR8 cells, R848, 20 hrs; read-out: HEK/hTLR8 IC50
We'd kindly ask you to apply these IC50 classes: low = under 5 nM, intermediate = from 5 nM up to 20 nM, high = 20 nM and over

Recorded results for 4 compounds are shown here.
compound="C[C@@H]1CN(c2ccc(C#N)c3ncccc23)C[C@H](CN2CCN(c3cnc4c(n3)CNCC4)CC2)O1 [Example 40]" assigned_category=low
compound="CC1NCc2ncc(N3CCN(C[C@H]4CN(c5ccc(C#N)c6ncccc56)C[C@@H](C)O4)CC3)cc21 (stereo partly shown) [Example 41]" assigned_category=intermediate
compound="C[C@@H]1CN(c2ccc(C#N)c3ncccc23)C[C@H](CN2CCN(c3ccc4c(c3)CNC4)CC2)O1 [Example 7]" assigned_category=high
compound="C[C@@H]1CN(c2ccc(C#N)c3ncccc23)C[C@H](CN2CCN(c3cc4c(cn3)CN[C@@H](C)C4)CC2)O1 (single isomer, unassigned) [Example 71]" assigned_category=low

State the class of the compound shown: C[C@@H]1CN(c2ccc(C#N)c3ncccc23)C[C@H](CN2CCC(Nc3ncc4c(n3)CCNC4)C2)O1 (stereo partly shown) [Example 57]
high

And C[C@@H]1CN(c2ccc(C#N)c3nccnc23)C[C@H](CN2CCN(c3cc4c(cn3)CN[C@@H](C)C4)CC2)O1 (single isomer, unassigned) [Example 84] ?
low

And C[C@@H]1CN(c2ccc(C#N)c3ncccc23)C[C@H](CN2CCCN(c3nc4c(s3)CNCC4)CC2)O1 [Example 33] ?
intermediate

And C[C@@H]1CN(c2ccc(C#N)c3nccnc23)C[C@H](CN2CCN(c3cnc4c(c3)CNC4)CC2)O1 [Example 25] ?
intermediate

And C[C@@H]1Cc2cnc(N3CCN(C[C@H]4CN(c5ccc(C#N)c6ncccc56)C[C@@H](C)O4)CC3)cc2CN1 (single isomer, unassigned) [Example 77] ?
intermediate

And C[C@@H]1CN(c2ccc(C#N)c3ncccc23)C[C@H](CNC2CN(c3cnc4c(c3)CNC4)C2)O1 [Example 43] ?
high

And C[C@@H]1CN(c2ccc(C#N)c3ncccc23)C[C@H](CN2CCN(c3cc4c(cn3)CCNC4)CC2)O1 [Example 20] ?
intermediate

And C[C@@H]1CN(c2ccc(C#N)c3ncccc23)C[C@H](CN2CCN(c3ccc4c(c3)C(O)CN(C)C4)CC2)O1 (stereo partly shown) [Example 59] ?
intermediate

And C[C@@H]1CN(c2ccc(C#N)c3ncsc23)C[C@H](CN2CCN(c3cnc4c(c3)CNC4)CC2)O1 [Example 8] ?
low

And C[C@@H]1CN(c2ccc(C#N)c3ncccc23)C[C@H](CN2CCN(c3ccc4c(c3)CNCC4)CC2)O1 [Example 9] ?
intermediate
